biological target: Disintegrin and metalloproteinase domain-containing protein 17 (Homo sapiens) (UniProt P78536); experiment: inhibition of ADAM17 peptide cleavage – biochemical, QFRET, primary screen (AID 720648); conditions: recombinant ADAM17, EDANS/DABCYL FRET peptide cleavage; at 6.95 µM; hits give high values;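 note: 0% = DMSO-only wells as the low control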
Sequence (P78536 215-824 limits assumed): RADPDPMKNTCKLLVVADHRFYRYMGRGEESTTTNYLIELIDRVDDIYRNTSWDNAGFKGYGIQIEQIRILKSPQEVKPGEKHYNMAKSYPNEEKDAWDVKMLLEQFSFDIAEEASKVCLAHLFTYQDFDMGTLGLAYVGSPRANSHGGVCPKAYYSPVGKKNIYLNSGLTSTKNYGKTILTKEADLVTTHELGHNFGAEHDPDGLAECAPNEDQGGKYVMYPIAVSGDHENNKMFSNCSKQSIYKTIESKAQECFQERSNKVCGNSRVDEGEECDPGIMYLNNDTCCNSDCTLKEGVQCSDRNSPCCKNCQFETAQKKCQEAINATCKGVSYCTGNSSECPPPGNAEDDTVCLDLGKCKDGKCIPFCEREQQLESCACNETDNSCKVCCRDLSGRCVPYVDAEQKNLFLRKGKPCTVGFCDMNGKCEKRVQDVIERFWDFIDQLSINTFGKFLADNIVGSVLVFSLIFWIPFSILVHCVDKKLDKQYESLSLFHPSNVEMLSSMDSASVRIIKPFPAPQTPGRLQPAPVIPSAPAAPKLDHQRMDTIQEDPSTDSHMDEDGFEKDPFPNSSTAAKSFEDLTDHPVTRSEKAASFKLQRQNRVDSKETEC
Among all 370,000 compounds or so, about 3,100 (0.84%) were called active. For the sample, actives were picked, then their nearest neighbours and some compounds at random.
readout kind: inhibition (%)
The reply should contain only the number, in %.

Please give the measured inhibition for this compound: `CC(=O)Nc1ccc(OC[C@@H](O)CN2CCC(C(O)(c3ccccc3)c3ccccc3)CC2)cc1`
2.29

Please give the measured inhibition for this compound: CC(C)C(C#CC1CC1)N(Cc1ccc2c(c1)OCO2)C(N)=NC(=O)/C=C/c1cccc(C(F)(F)F)c1 (stereo not given)
-3.71

Please give the measured inhibition for this compound: `COC(=O)[C@@]12CCCCC=C1N(CCc1ccc(Cl)cc1)C(=O)[C@H]2CC(=O)NCc1ccc(OC)c(OC)c1`
-0.2

Please give the measured inhibition for this compound: O=C(c1ccccc1)c1ccc(-c2ccccc2C(=O)NC2CCCCN(Cc3ccc(Cl)cc3)C2=O)cc1 (stereo not given)
-0.61

Please give the measured inhibition for this compound: `O=C(NC1CCC1)c1ccc(C#Cc2cccc(F)c2)c[n+]1[O-]`
-5.18

###

target: Disintegrin and metalloproteinase domain-containing protein 17 (Homo sapiens) (UniProt P78536); assay: inhibition of ADAM17 peptide cleavage – biochemical, QFRET, primary screen (AID 720648); conditions: recombinant ADAM17, EDANS/DABCYL FRET peptide cleavage; at 6.95 µM; hits give high values;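 note: 0% = DMSO-only wells as the low control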
About 3,100 (0.84%) of roughly 370,000 compounds were called active. The list comes from a sample in which actives are over-represented; it also holds close analogues and randomly drawn compounds.
readout kind: inhibition (%)
The reply should contain only the number, in %.

Please give the measured inhibition for this molecule: COC(=O)C1CN(Cc2cn(Cc3ccc(F)cc3)nn2)CCS(=O)(=O)N1Cc1ccc(Cl)cc1 (stereo not drawn)
1.41

Please give the measured inhibition for this molecule: `CCOC(=O)[C@]12CCCCC/C=C\1N(Cc1ccc(OC)cc1)C(=O)[C@H]2CC(=O)NCc1ccc(C)o1`
-1.43

Please give the measured inhibition for this molecule: `CCn1c(SCC(=O)N/N=C/c2ccccc2OCC(=O)O)nnc1-c1ccc(C(C)(C)C)cc1`
-1.28

Please give the measured inhibition for this molecule: `O=C(CC(=O)N/N=C\c1cccc(Cl)c1Cl)NCc1ccccc1`
-1.85

Please give the measured inhibition for this molecule: `CC(C)(C)OC(=O)NCc1cc(F)ccc1/C=C/S(=O)(=O)NCCc1ccccc1`
4.18

Please give the measured inhibition for this molecule: CCCC[C@H]1C2CC(OC(=O)NCc3ccccc3)C(C2)[C@H]2CCCCN21 (stereo partly drawn)
-10.2

Please give the measured inhibition for this molecule: `O=C(CSc1nc2ccccc2s1)NN=Cc1ccc(O)cc1O`
3.8

Please give the measured inhibition for this molecule: `CC(C)N(C(=O)[C@H]1C[C@H](CC(=O)NC(C)(C)C)C(=O)N2CCc3c([nH]c4ccc(Cl)cc34)[C@]12C)C(C)C`
8.65

Please give the measured inhibition for this molecule: `Cc1nc2ccc(C(=O)N3CCN(C(=O)C(C)(C)C)CC3)cc2n1C1CCCC1`
3.54

Please give the measured inhibition for this molecule: `COc1ccc(C#CCNCc2ccc(OC)cc2OC)cc1`
-5.67

Please give the measured inhibition for this molecule: `Nn1c(SCC(=O)Nc2ccc(S(N)(=O)=O)cc2)nnc1-c1n[nH]c2c1CCC2`
-1.11

Please give the measured inhibition for this molecule: `CCCCOCCCNC(=O)C[C@H]1C[C@@]2(C(=O)OC)C(=C[C@H](C(C)(C)C)O[C@@H]2C)N(CCc2ccc(OC)c(OC)c2)C1=O`
4.52

Please give the measured inhibition for this molecule: `C[C@]12c3[nH]c4ccc(Cl)cc4c3CCN1C(=O)[C@@H](CC(=O)NCCCn1ccnc1)C[C@@H]2C(=O)N1CCOCC1`
4.49

Please give the measured inhibition for this molecule: `CC(C)Oc1cc(F)ccc1-c1cc(C(=O)Nc2cccc(Cl)c2)[nH]n1`
12.5

Please give the measured inhibition for this molecule: `COC(=O)[C@]12C[C@H](CC(=O)N3CCOCC3)C(=O)N(Cc3ccc(Cl)cc3Cl)C1=C[C@H](COCc1ccccc1)O[C@@H]2C`
0.56

Please give the measured inhibition for this molecule: `CCC(=O)Nc1ccc2c(c1)C(=O)N(C)[C@H]1CC[C@H](CC(=O)NCCOC)O[C@@H]1CO2`
-1.85

Please give the measured inhibition for this molecule: O=C(NN1C(=O)C2C3C=CC(O3)C2C1=O)c1ccccc1 (stereo not drawn)
0.75

Please give the measured inhibition for this molecule: `COc1cc(NC(=O)c2cc(-c3ccc(F)cc3OC(C)C)n[nH]2)cc(OC)c1OC`
3.11
